- Test system: Plasmodium berghei
- Assay info: Luciferase/luciferin-expressing antifolate-resistant parasites were used to infect a culture of HepG2 cells that were pre-incubated with compounds. Infected hepatocytes emit light due to the luciferase reaction. Assay results are presented as the percent inhibition of light emission compared to control. […]
- Type: functional
- Condition details: sporozoite, PBLUC_HILL_SLOPE 3.28, PBLUC_R_SQUARED 0.115, read-out: LUCIFERASE INFECTION ASSAY - IC50
Measured endpoint: IC50

## Task Would you mind telling me what IC50 value was observed for O=C(/C=C/c1cccs1)N1CCN(S(=O)(=O)c2c(Cl)cc(Br)cc2Cl)CC1 ?
## Result 5.38 µM

###

- Test system: Plasmodium berghei
- Assay info: Luciferase/luciferin-expressing antifolate-resistant parasites were used to infect a culture of HepG2 cells that were pre-incubated with compounds. Infected hepatocytes emit light due to the luciferase reaction. Assay results are presented as the percent inhibition of light emission compared to control. […]
- Type: functional
- Condition details: sporozoite, FFLUC_HILL_SLOPE 14.7, FFLUC_R_SQUARED 0.565, HEPG2TOX_HILL_SLOPE 10.6, HEPG2TOX_R_SQUARED 0.932, PBLUC_HILL_SLOPE 12.2, PBLUC_R_SQUARED 0.78, read-out: LUCIFERASE INFECTION ASSAY - IC50
Measured endpoint: IC50 (µM)
A number alone suffices; assume µM.

## Task Would you mind telling me what IC50 value was observed for COc1ccc(-c2cc(NC(=O)Cc3ccc(S(=O)(=O)N4CCCC4)s3)ccc2OC)cc1 ?
## Result 3.88

###

- Tested on: Plasmodium berghei
- Assay info: Luciferase/luciferin-expressing antifolate-resistant parasites were used to infect a culture of HepG2 cells that were pre-incubated with compounds. Infected hepatocytes emit light due to the luciferase reaction. Assay results are presented as the percent inhibition of light emission compared to control. […]
- Format: functional
- Condition details: sporozoite, FFLUC_HILL_SLOPE 7.93, FFLUC_R_SQUARED 0.0643, HEPG2TOX_HILL_SLOPE 7, HEPG2TOX_R_SQUARED 0.225, PBLUC_HILL_SLOPE 4.62, PBLUC_R_SQUARED 0.186, read-out: LUCIFERASE INFECTION ASSAY - IC50
Measured endpoint: pIC50
# pIC50 = -log10(concentration in molar units)

## Task Would you mind telling me what pIC50 value was observed for C=CCN(c1ccc(F)cc1)S(=O)(=O)c1cc(C(=O)OCC(=O)C23CC4CC(CC(C4)C2)C3)ccc1Cl ?
## Result 5.16

###

- Tested on: Plasmodium berghei
- Assay info: Luciferase/luciferin-expressing antifolate-resistant parasites were used to infect a culture of HepG2 cells that were pre-incubated with compounds. Infected hepatocytes emit light due to the luciferase reaction. Assay results are presented as the percent inhibition of light emission compared to control. […]
- Assay type: functional
- Condition details: sporozoite, HEPG2TOX_HILL_SLOPE 3.03, HEPG2TOX_R_SQUARED 0.965, PBLUC_HILL_SLOPE 7.81, PBLUC_R_SQUARED 0.531, read-out: LUCIFERASE INFECTION ASSAY - IC50
Measured endpoint: IC50 (nM)
A number alone suffices; assume nM.

## Task Would you mind telling me what IC50 value was observed for COc1ccc(-c2cnc3ccc(-c4cccc(F)c4)nn23)cc1OC ?
## Result 958

###

- System: Plasmodium berghei
- Assay info: Luciferase/luciferin-expressing antifolate-resistant parasites were used to infect a culture of HepG2 cells that were pre-incubated with compounds. Infected hepatocytes emit light due to the luciferase reaction. Assay results are presented as the percent inhibition of light emission compared to control. […]
- Format: functional
- Condition details: sporozoite, HEPG2TOX_HILL_SLOPE 1.86, HEPG2TOX_R_SQUARED 0.464, PBLUC_HILL_SLOPE 1.21, PBLUC_R_SQUARED 0.574, read-out: LUCIFERASE INFECTION ASSAY - IC50
Measured endpoint: pIC50
# pIC50 = -log10(concentration in molar units)

## Task Would you mind telling me what pIC50 value was observed for Cc1cc(C(=O)Cn2cnc3ccccc3c2=O)c(C)n1-c1ccccc1F ?
## Result 5.44

###

- System: Plasmodium berghei
- Assay info: Luciferase/luciferin-expressing antifolate-resistant parasites were used to infect a culture of HepG2 cells that were pre-incubated with compounds. Infected hepatocytes emit light due to the luciferase reaction. Assay results are presented as the percent inhibition of light emission compared to control. […]
- Type: functional
- Condition details: sporozoite, FFLUC_HILL_SLOPE 5.22, FFLUC_R_SQUARED 0.381, HEPG2TOX_HILL_SLOPE 38.7, HEPG2TOX_R_SQUARED 0.813, PBLUC_HILL_SLOPE 3.47, PBLUC_R_SQUARED 0.525, read-out: LUCIFERASE INFECTION ASSAY - IC50
Measured endpoint: pIC50
# pIC50 = -log10(concentration in molar units)

## Task Would you mind telling me what pIC50 value was observed for O=C(CSc1ccccc1C(=O)N(Cc1ccco1)Cc1cccs1)NC12CC3CC(CC(C3)C1)C2 ?
## Result 5.39

###

- System: Plasmodium berghei
- Assay info: Luciferase/luciferin-expressing antifolate-resistant parasites were used to infect a culture of HepG2 cells that were pre-incubated with compounds. Infected hepatocytes emit light due to the luciferase reaction. Assay results are presented as the percent inhibition of light emission compared to control. […]
- Assay type: functional
- Condition details: sporozoite, HEPG2TOX_HILL_SLOPE 1.82, HEPG2TOX_R_SQUARED 0.577, PBLUC_HILL_SLOPE 1.88, PBLUC_R_SQUARED 0.501, read-out: LUCIFERASE INFECTION ASSAY - IC50
Measured endpoint: pIC50
# pIC50 = -log10(concentration in molar units)

## Task Would you mind telling me what pIC50 value was observed for COc1cccc(/C=c2\s/c(=C\C(=O)C(C)(C)C)n(C)c2=O)c1OC(C)C ?
## Result 5.07

###

- System: Plasmodium berghei
- Assay info: Luciferase/luciferin-expressing antifolate-resistant parasites were used to infect a culture of HepG2 cells that were pre-incubated with compounds. Infected hepatocytes emit light due to the luciferase reaction. Assay results are presented as the percent inhibition of light emission compared to control. […]
- Format: functional
- Condition details: sporozoite, HEPG2TOX_HILL_SLOPE 11.5, HEPG2TOX_R_SQUARED 0.688, PBLUC_HILL_SLOPE 15.9, PBLUC_R_SQUARED 0.276, read-out: LUCIFERASE INFECTION ASSAY - IC50
Measured endpoint: IC50 (µM)
A number alone suffices; assume µM.

## Task Would you mind telling me what IC50 value was observed for O=C(Nc1ccc(SC(F)(F)F)cc1)Nc1cccnc1N1CCC(C(F)(F)F)CC1 ?
## Result 2.03

###

- Test system: Plasmodium berghei
- Assay info: Luciferase/luciferin-expressing antifolate-resistant parasites were used to infect a culture of HepG2 cells that were pre-incubated with compounds. Infected hepatocytes emit light due to the luciferase reaction. Assay results are presented as the percent inhibition of light emission compared to control. […]
- Assay type: functional
- Condition details: sporozoite, read-out: LUCIFERASE INFECTION ASSAY - IC90
Please go through the items and note down their IC90.

## Task Would you mind telling me what IC90 value was observed for CC(C)(C)c1ccc(OS(=O)(=O)c2ccc(Oc3c(Cl)cccc3[N+](=O)[O-])cc2)cc1 ?
## Result > 7.14 µM

## Task Would you mind telling me what IC90 value was observed for Cc1cc(-c2csc(NC(=O)CCc3nc4ccccc4[nH]3)n2)c(C)s1 ?
## Result > 10 µM

## Task Would you mind telling me what IC90 value was observed for COc1cc(CN(C)C(=O)c2ccc3c(c2)S(=O)(=O)N=C2CCCCCN23)ccc1OC(F)F ?
## Result > 10 µM

## Task Would you mind telling me what IC90 value was observed for O=C(NNC(=O)c1cccn1-c1ccc(F)cc1)Nc1ccc(Cl)c(Cl)c1 ?
## Result 7.62 µM

## Task Would you mind telling me what IC90 value was observed for Cc1cccc2sc(N(Cc3ccccc3)C(=O)CN3CCN(CC(=O)N4CCCC4)CC3)nc12 ?
## Result 6.71 µM

## Task Would you mind telling me what IC90 value was observed for COc1ccc(CC(N)c2csc(NC(=O)Nc3cccc(Cl)c3)n2)cc1 (stereo not given) ?
## Result > 8.19 µM

## Task Would you mind telling me what IC90 value was observed for CSc1sc(C#N)c2c1/C(=N/OC(=O)c1ccc(Cl)cc1)CCC2 ?
## Result > 8.76 µM

## Task Would you mind telling me what IC90 value was observed for Cc1nn(CC(=O)NCCCN2c3ccccc3Sc3ccccc32)c(C)c1[N+](=O)[O-] ?
## Result > 10 µM

## Task Would you mind telling me what IC90 value was observed for Clc1ccc2c(Sc3nnc4ccccn34)ccnc2c1 ?
## Result > 10 µM

## Task Would you mind telling me what IC90 value was observed for CC(C)c1ccc(Nc2ccn3ncc(-c4cccc(N)c4)c3n2)cc1 ?
## Result > 9.61 µM

Data credit: ChEMBL document CHEMBL4483862
